This collection of values is drawn from patent US8772304B2.

Biological target: recombinant human FLAP protein (Homo sapiens (Human), UniProt P20292)
Sequence (P20292 whole entry): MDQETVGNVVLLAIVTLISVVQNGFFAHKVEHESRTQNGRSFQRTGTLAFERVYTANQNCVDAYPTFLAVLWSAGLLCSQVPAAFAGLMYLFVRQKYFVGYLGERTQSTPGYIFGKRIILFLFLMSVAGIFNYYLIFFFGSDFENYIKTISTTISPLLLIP
Experiment: FLAP binding assay (Scintillation Proximity Assay, displacement of iodinated FLAP inhibitor)
Details: displacement of [125I]L-691,831; membranes of sf9 cells expressing recombinant human FLAP; read-out: hFLAP binding IC50
readoutKind: pIC50
// scale note: pIC50 = -log10(conc_M); give the bare number

{"columns": ["smilesRepresentation", "pIC50"],
 "data": [
  ["CC(C)(C)n1c(-c2cc(Cl)cnc2-n2cncn2)nc2cc(-c3cnc(N)nc3)ccc21", 8.49]
]}

recombinant human FLAP protein (Homo sapiens (Human), UniProt P20292) / pIC50 / CC(C)(C)n1c(-c2cccc(F)n2)nc2cc(-c3cnc(N)nc3)ccc21 : value?
6.55

recombinant human FLAP protein (Homo sapiens (Human), UniProt P20292) / pIC50 / CC(C)(C)n1c(-c2cc(C#N)cnc2-n2cncn2)nc2cc(-c3cnc(N)nc3)ccc21 : value?
8.00

recombinant human FLAP protein (Homo sapiens (Human), UniProt P20292) / pIC50 / Cc1ccc(-c2nc3cc(-c4cnc(N)nc4)ccc3n2C(C)(C)C)c(-n2cncn2)n1 : value?
7.77

recombinant human FLAP protein (Homo sapiens (Human), UniProt P20292) / pIC50 / COC(=O)c1cccnc1-c1nc2cc(-c3cnc(N)nc3)ccc2n1C(C)(C)C : value?
6.27

recombinant human FLAP protein (Homo sapiens (Human), UniProt P20292) / pIC50 / CC(C)(C)n1c(-c2cc(Br)cnc2-n2cncn2)nc2cc(-c3cnc(N)nc3)ccc21 : value?
8.40

recombinant human FLAP protein (Homo sapiens (Human), UniProt P20292) / pIC50 / CC(C)(C)n1c(-c2ccc(N3CCOCC3)nc2)nc2cc(-c3cnc(N)nc3)ccc21 : value?
6.74

recombinant human FLAP protein (Homo sapiens (Human), UniProt P20292) / pIC50 / CC(C)(C)n1c(-c2ccccn2)nc2cc(-c3cnc(N)nc3)ccc21 : value?
6.15
